Tested on: Saccharomyces cerevisiae
MEASUREMENT_NOTES: protein stability index of tFT-peptide fusion (C-terminal peptide) (PSI (0-1 scale)); higher = more stable (slower turnover)
DETAILS: genetic background: wild type; temperature: 30 C
protein stability index by entry:
EXPERIMENTAL_ENDPOINT: protein stability index

- SEQUENCE_RECORD: "QLNGTVTRPGDF"
  EXPERIMENTAL_ENDPOINT: "protein stability index"
  RECORDED_MEASUREMENT: 0.7
- SEQUENCE_RECORD: "LNSSRLSFFCLE"
  EXPERIMENTAL_ENDPOINT: "protein stability index"
  RECORDED_MEASUREMENT: 0.689
- SEQUENCE_RECORD: "APLLAPPPPSRT"
  EXPERIMENTAL_ENDPOINT: "protein stability index"
  RECORDED_MEASUREMENT: 0.642
- SEQUENCE_RECORD: "KNKKRDKYRKKT"
  EXPERIMENTAL_ENDPOINT: "protein stability index"
  RECORDED_MEASUREMENT: 0.607
- SEQUENCE_RECORD: "SRPPAPPPLPAP"
  EXPERIMENTAL_ENDPOINT: "protein stability index"
  RECORDED_MEASUREMENT: 0.726
- SEQUENCE_RECORD: "PPGPLPPLSSTP"
  EXPERIMENTAL_ENDPOINT: "protein stability index"
  RECORDED_MEASUREMENT: 0.661
- SEQUENCE_RECORD: "GVLRVRLLAFGL"
  EXPERIMENTAL_ENDPOINT: "protein stability index"
  RECORDED_MEASUREMENT: 0.65
- SEQUENCE_RECORD: "LVAATGRCIKKP"
  EXPERIMENTAL_ENDPOINT: "protein stability index"
  RECORDED_MEASUREMENT: 0.649
- SEQUENCE_RECORD: "KKEEKKRRKPQR"
  EXPERIMENTAL_ENDPOINT: "protein stability index"
  RECORDED_MEASUREMENT: 0.626
- SEQUENCE_RECORD: "VAGRGLGCPGRI"
  EXPERIMENTAL_ENDPOINT: "protein stability index"
  RECORDED_MEASUREMENT: 0.632
- SEQUENCE_RECORD: "MFCRSPSYFPTV"
  EXPERIMENTAL_ENDPOINT: "protein stability index"
  RECORDED_MEASUREMENT: 0.739
- SEQUENCE_RECORD: "SGFQAPGSVASE"
  EXPERIMENTAL_ENDPOINT: "protein stability index"
  RECORDED_MEASUREMENT: 0.623
- SEQUENCE_RECORD: "PPLAPLPSAPLR"
  EXPERIMENTAL_ENDPOINT: "protein stability index"
  RECORDED_MEASUREMENT: 0.674
- SEQUENCE_RECORD: "VLSDFSFPFFVL"
  EXPERIMENTAL_ENDPOINT: "protein stability index"
  RECORDED_MEASUREMENT: 0.669
- SEQUENCE_RECORD: "CSSLPPFPALPR"
  EXPERIMENTAL_ENDPOINT: "protein stability index"
  RECORDED_MEASUREMENT: 0.701
- SEQUENCE_RECORD: "SVCLRASSCFRS"
  EXPERIMENTAL_ENDPOINT: "protein stability index"
  RECORDED_MEASUREMENT: 0.648
- SEQUENCE_RECORD: "RNDCAYHVLQIV"
  EXPERIMENTAL_ENDPOINT: "protein stability index"
  RECORDED_MEASUREMENT: 0.228
- SEQUENCE_RECORD: "SSVSARHVPCSP"
  EXPERIMENTAL_ENDPOINT: "protein stability index"
  RECORDED_MEASUREMENT: 0.689
- SEQUENCE_RECORD: "LAVWSVVGGGVV"
  EXPERIMENTAL_ENDPOINT: "protein stability index"
  RECORDED_MEASUREMENT: 0.637
- SEQUENCE_RECORD: "PSHPLSLFLLFL"
  EXPERIMENTAL_ENDPOINT: "protein stability index"
  RECORDED_MEASUREMENT: 0.58
- SEQUENCE_RECORD: "GIPWSVLLSSYW"
  EXPERIMENTAL_ENDPOINT: "protein stability index"
  RECORDED_MEASUREMENT: 0.713
- SEQUENCE_RECORD: "VVRLGLVSGCGG"
  EXPERIMENTAL_ENDPOINT: "protein stability index"
  RECORDED_MEASUREMENT: 0.581
- SEQUENCE_RECORD: "KKWRKKTEHDKE"
  EXPERIMENTAL_ENDPOINT: "protein stability index"
  RECORDED_MEASUREMENT: 0.729
- SEQUENCE_RECORD: "VCGGRQGGWGGW"
  EXPERIMENTAL_ENDPOINT: "protein stability index"
  RECORDED_MEASUREMENT: 0.693
- SEQUENCE_RECORD: "RTRKYEDKSARM"
  EXPERIMENTAL_ENDPOINT: "protein stability index"
  RECORDED_MEASUREMENT: 0.688
- SEQUENCE_RECORD: "SKLRKGNSIDDR"
  EXPERIMENTAL_ENDPOINT: "protein stability index"
  RECORDED_MEASUREMENT: 0.625
- SEQUENCE_RECORD: "IGGVSHEMKAKR"
  EXPERIMENTAL_ENDPOINT: "protein stability index"
  RECORDED_MEASUREMENT: 0.619
- SEQUENCE_RECORD: "KRSARRAGRATP"
  EXPERIMENTAL_ENDPOINT: "protein stability index"
  RECORDED_MEASUREMENT: 0.761
- SEQUENCE_RECORD: "PPPPPLYLPRFV"
  EXPERIMENTAL_ENDPOINT: "protein stability index"
  RECORDED_MEASUREMENT: 0.675
- SEQUENCE_RECORD: "QVRTWGGCWGRG"
  EXPERIMENTAL_ENDPOINT: "protein stability index"
  RECORDED_MEASUREMENT: 0.674
- SEQUENCE_RECORD: "FCFLLLSWAFWV"
  EXPERIMENTAL_ENDPOINT: "protein stability index"
  RECORDED_MEASUREMENT: 0.159
- SEQUENCE_RECORD: "GLACNPQLLRWT"
  EXPERIMENTAL_ENDPOINT: "protein stability index"
  RECORDED_MEASUREMENT: 0.756
- SEQUENCE_RECORD: "GTGQSRAEGARP"
  EXPERIMENTAL_ENDPOINT: "protein stability index"
  RECORDED_MEASUREMENT: 0.672
- SEQUENCE_RECORD: "CLLPFCFLSHIF"
  EXPERIMENTAL_ENDPOINT: "protein stability index"
  RECORDED_MEASUREMENT: 0.585
- SEQUENCE_RECORD: "RGRAVGVGGGGV"
  EXPERIMENTAL_ENDPOINT: "protein stability index"
  RECORDED_MEASUREMENT: 0.626
- SEQUENCE_RECORD: "HGERMRKSPREE"
  EXPERIMENTAL_ENDPOINT: "protein stability index"
  RECORDED_MEASUREMENT: 0.672
- SEQUENCE_RECORD: "HLKRFLQVHARL"
  EXPERIMENTAL_ENDPOINT: "protein stability index"
  RECORDED_MEASUREMENT: 0.82
- SEQUENCE_RECORD: "IKKKKEEKKKKK"
  EXPERIMENTAL_ENDPOINT: "protein stability index"
  RECORDED_MEASUREMENT: 0.586
- SEQUENCE_RECORD: "VARWVYALGLLC"
  EXPERIMENTAL_ENDPOINT: "protein stability index"
  RECORDED_MEASUREMENT: 0.312
- SEQUENCE_RECORD: "GVLARAYPTLWV"
  EXPERIMENTAL_ENDPOINT: "protein stability index"
  RECORDED_MEASUREMENT: 0.68
- SEQUENCE_RECORD: "GLVHGSWGCQCD"
  EXPERIMENTAL_ENDPOINT: "protein stability index"
  RECORDED_MEASUREMENT: 0.714

###

Catalogue of sequences with associated protein stability index
System: Saccharomyces cerevisiae;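 further: PSI is a weighted mean of sequencing reads over stability bins, variants kept only with over 10 reads, mCherry proximal and sfGFP distal, peptide attached via GGGS linker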
MEASUREMENT_NOTES: protein stability index of tFT-peptide fusion (C-terminal peptide) (PSI (0-1 scale)); higher = more stable (slower turnover)
DETAILS: genetic background: wild type; temperature: 30 C
EXPERIMENTAL_ENDPOINT: protein stability index

- SEQUENCE_RECORD: "TSPTPPPTPCRS"
  EXPERIMENTAL_TARGET: "Saccharomyces cerevisiae"
  RECORDED_MEASUREMENT: 0.693
- SEQUENCE_RECORD: "IRQPNHSIGPHG"
  EXPERIMENTAL_TARGET: "Saccharomyces cerevisiae"
  RECORDED_MEASUREMENT: 0.719
- SEQUENCE_RECORD: "ARLPTYLAAPPP"
  EXPERIMENTAL_TARGET: "Saccharomyces cerevisiae"
  RECORDED_MEASUREMENT: 0.726
- SEQUENCE_RECORD: "LPSPTTNLFKPN"
  EXPERIMENTAL_TARGET: "Saccharomyces cerevisiae"
  RECORDED_MEASUREMENT: 0.711
- SEQUENCE_RECORD: "VPCPPRRLAPRG"
  EXPERIMENTAL_TARGET: "Saccharomyces cerevisiae"
  RECORDED_MEASUREMENT: 0.582
- SEQUENCE_RECORD: "VGHGGRRGVGGW"
  EXPERIMENTAL_TARGET: "Saccharomyces cerevisiae"
  RECORDED_MEASUREMENT: 0.612
- SEQUENCE_RECORD: "TSSPVFPFPPTP"
  EXPERIMENTAL_TARGET: "Saccharomyces cerevisiae"
  RECORDED_MEASUREMENT: 0.745
- SEQUENCE_RECORD: "PPSLLRPYPLLS"
  EXPERIMENTAL_TARGET: "Saccharomyces cerevisiae"
  RECORDED_MEASUREMENT: 0.66
- SEQUENCE_RECORD: "VHFFHLCFCEIL"
  EXPERIMENTAL_TARGET: "Saccharomyces cerevisiae"
  RECORDED_MEASUREMENT: 0.673
- SEQUENCE_RECORD: "AFPSLRSLPLFS"
  EXPERIMENTAL_TARGET: "Saccharomyces cerevisiae"
  RECORDED_MEASUREMENT: 0.608
- SEQUENCE_RECORD: "PEGPGAGRGEHN"
  EXPERIMENTAL_TARGET: "Saccharomyces cerevisiae"
  RECORDED_MEASUREMENT: 0.686
- SEQUENCE_RECORD: "NVALPLSLLFGL"
  EXPERIMENTAL_TARGET: "Saccharomyces cerevisiae"
  RECORDED_MEASUREMENT: 0.633
- SEQUENCE_RECORD: "SGRTQPRGKHNA"
  EXPERIMENTAL_TARGET: "Saccharomyces cerevisiae"
  RECORDED_MEASUREMENT: 0.683
- SEQUENCE_RECORD: "GGWWSCAWGVRG"
  EXPERIMENTAL_TARGET: "Saccharomyces cerevisiae"
  RECORDED_MEASUREMENT: 0.627
- SEQUENCE_RECORD: "RVGGVVRGERAR"
  EXPERIMENTAL_TARGET: "Saccharomyces cerevisiae"
  RECORDED_MEASUREMENT: 0.671
- SEQUENCE_RECORD: "ALFNEVFRSLLL"
  EXPERIMENTAL_TARGET: "Saccharomyces cerevisiae"
  RECORDED_MEASUREMENT: 0.712
- SEQUENCE_RECORD: "VFFSLSLILFPF"
  EXPERIMENTAL_TARGET: "Saccharomyces cerevisiae"
  RECORDED_MEASUREMENT: 0.419
- SEQUENCE_RECORD: "SPLPPPLPPFPP"
  EXPERIMENTAL_TARGET: "Saccharomyces cerevisiae"
  RECORDED_MEASUREMENT: 0.617
- SEQUENCE_RECORD: "RGRAGTRGVVEK"
  EXPERIMENTAL_TARGET: "Saccharomyces cerevisiae"
  RECORDED_MEASUREMENT: 0.71
